Procedure text: glucagon-like peptide 1 release enhancers, primary assay, NCI-H716 cell line, NPC library (AID 1117341); further: reference of the scale not given here
Measurement conditions: NCI-H716 cells, at 10 µM, hits give high values
The source made the active and inactive calls.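 How the source made its calls: active means compound raises GLP1 secretion from the human gut endocrine cells, with no numeric limit stated; inactive means the rest.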
Readout kind: GLP1 secretion stimulation

{"columns": ["Compound", "Readout kind", "Result"],
 "data": [
  ["CC(=O)Oc1ccc2c(c1)CC[C@@H]1[C@@H]2CC[C@]2(C)[C@@H](O)CC[C@@H]12", "GLP1 secretion stimulation", "1.6% (inactive)"],
  ["Nc1ccn(C[C@@H](CO)OCP(=O)(O)O)c(=O)n1", "GLP1 secretion stimulation", "0.9% (inactive)"],
  ["CC=CC1=C(C(=O)O)N2C(=O)[C@@H](NC(=O)[C@H](N)c3ccc(O)cc3)[C@H]2SC1", "GLP1 secretion stimulation", "-4% (inactive)"],
  ["CCCCCCC[N+](CC)(CC)CCCCc1ccc(Cl)cc1", "GLP1 secretion stimulation", "7.2% (inactive)"],
  ["C=CCN1C[C@H](C(=O)N(CCCN(C)C)C(=O)NCC)C[C@@H]2c3cccc4[nH]cc(c34)C[C@H]21", "GLP1 secretion stimulation", "0.5% (inactive)"],
  ["CN1CCCN=C1/C=C/c1cccs1", "GLP1 secretion stimulation", "1.8% (inactive)"],
  ["C[N+](C)(C)CC(O)CC(=O)[O-] (centres undefined)", "GLP1 secretion stimulation", "-1.8% (inactive)"],
  ["CC(CN(C)C)C(C)(O)Cc1ccc(Cl)cc1 (centres undefined)", "GLP1 secretion stimulation", "-2% (inactive)"],
  ["CN(C)CCn1nnnc1SCC1=C(C(=O)O)N2C(=O)[C@@H](NC(=O)Cc3csc(N)n3)[C@H]2SC1", "GLP1 secretion stimulation", "-3% (inactive)"],
  ["NCCNCCNCCN", "GLP1 secretion stimulation", "-0.1% (inactive)"],
  ["C[C@]12CCC(=O)C=C1CC[C@H]1[C@@H]3CC[C@](O)(C(=O)CO)[C@@]3(C)C[C@H](O)[C@@]12F", "GLP1 secretion stimulation", "0.3% (inactive)"],
  ["CN(C)CCN1C(=O)c2ccccc2N(C)c2ccccc21", "GLP1 secretion stimulation", "4% (inactive)"],
  ["COC(=O)C1=C(C#N)NC(C)=C(C(=O)OC(C)C)C1c1cccc([N+](=O)[O-])c1 (centres undefined)", "GLP1 secretion stimulation", "-3.9% (inactive)"],
  ["O=c1[nH]c(=O)n([C@H]2CCCO2)cc1F", "GLP1 secretion stimulation", "-1.7% (inactive)"],
  ["O=C1c2ccccc2C(=O)C1c1ccc(Br)cc1", "GLP1 secretion stimulation", "-0.4% (inactive)"],
  ["CN1CCN(C2=Nc3ccccc3Sc3ccc(Cl)cc32)CC1", "GLP1 secretion stimulation", "19% (inactive)"],
  ["Cc1c(C(=O)NN2CCCCC2)nn(-c2ccc(Cl)cc2Cl)c1-c1ccc(Cl)cc1", "GLP1 secretion stimulation", "1.2% (inactive)"],
  ["CN1CC(=O)N/C1=N/C(=O)Nc1cccc(Cl)c1", "GLP1 secretion stimulation", "4.2% (inactive)"],
  ["COc1cc2ncnc(Nc3ccc(F)c(Cl)c3)c2cc1OCCCN1CCOCC1", "GLP1 secretion stimulation", "-2.9% (inactive)"],
  ["CCCCCCCCCCCCCCCCCC[N+](C)(C)CCC[Si](OC)(OC)OC", "GLP1 secretion stimulation", "-3.1% (inactive)"],
  ["NS(=O)(=O)c1cc(C(=O)O)cc(N2CCCC2)c1Oc1ccccc1", "GLP1 secretion stimulation", "1.1% (inactive)"],
  ["Cc1cc(=O)oc2cc(O)ccc12", "GLP1 secretion stimulation", "3.1% (inactive)"],
  ["O=P(O)(O)OC(CO)CO", "GLP1 secretion stimulation", "-1.6% (inactive)"],
  ["CC(CNC1CCCCC1)OC(=O)c1ccccc1 (centres undefined)", "GLP1 secretion stimulation", "3.9% (inactive)"]
]}
